Test system: daratumumab (anti-CD38 therapeutic mAb, IgG kappa)
Assay: SPR
Conditions: SPR: PBS, 2 mM MgCl2 (SB), 6.25-200 nM IgG, 20 ul/min, 1:1 model; ELONA: SuperBlock or ChonBlock, 0.05% Tween 20, 2 mM MgCl2, washes PBS/2 mM MgCl2/0.05% Tween …
measure: Kd (nM)

# sequenceData, valueUnits, valueObserved
rows = [
    ("GGAGGCTCTCGGGACGACGGCGCGGCGATTTGGGGTATGGGGAGGGGGTGGGTTGGGTCCATCGCTGCTGACCAGTTGAG [aptD]", "nM", 2.67),
]

###

Tested on: M-Ig of patient (monoclonal IgG kappa) (human (patient))
Experiment: SPR
Conditions: 2 mM Mg2+; aptamer immobilized; scrambled channel subtracted; SPR: PBS, 2 mM MgCl2 (SB), 6.25-200 nM IgG, 20 ul/min, 1:1 model; ELONA: SuperBlock or ChonBlock, 0.05% Tween 20, 2 mM MgCl2, washes PBS/2 mM MgCl2/0.05% Tween …
measure: Kd (nM)

# sequenceData, targetSystem, valueUnits, valueObserved
measured = [
    ("GGAGGCTCTCGGGACGACGAGTGTGTCAGGTGGATGGACGGTTGGGTTGGGTAGGCAAGGATCGCTGCTGACCAGTTGAG [aptC]", "M-Ig of patient (monoclonal IgG kappa) (human (patient))", "nM", 1.85),
]
